settings: in n-butanol, 318.2 K
RESULT_TYPE: solubility (mole fraction)

INSERT INTO assay_data (record_smiles, test_result) VALUES
  ('C[C@H]1[C@H](C)CC[C@]2(C(=O)O)CC[C@]3(C)C(=CC[C@@H]4[C@@]5(C)CC[C@H](O)C(C)(C)[C@@H]5CC[C@]43C)[C@H]12', 0.00504);

----------
conditions: in MIBK, 288.2 K
RESULT_TYPE: solubility (mole fraction)

INSERT INTO assay_data (record_smiles, test_result) VALUES
  ('C[C@H]1[C@H](C)CC[C@]2(C(=O)O)CC[C@]3(C)C(=CC[C@@H]4[C@@]5(C)CC[C@H](O)C(C)(C)[C@@H]5CC[C@]43C)[C@H]12', 0.00106);
